Data credit: patent US6753323B2

assay: Radiation-induced mucositis in mice (inferior lip mucosa model, Parkins score); format: in vivo, C57BL/6 mice; details: C57BL/6, mouse, in vivo; IP, given before each fraction of radiation, mice; read-out: maximum tolerated dose
Readout Label: MTD at 2 days (mg/kg)
Give bare numbers, in mg/kg.

Enquiry: Quick one: MTD at 2 days of NCCCNCCSP(=O)(O)O [amifostine] ?
Return: 400
